Cited source for all entries: patent US8173133B2

Recorded 50% inhibition LPS by entry
- Tested on: human peripheral blood mononuclear cells
- method-notes: inhibition of E. coli LPS-induced α TNF production in human peripheral blood mononuclear cells
- Type: cell-based
- measurement-setup: product 10 μg/ml; LPS concentration at which α TNF production is 50% of control
# number only, unit µg/mL dropped from output

Example cases with answers are listed next.
molecule	value-kind	measurement-unit	reading
CCCCCCCCCCCC(=O)O[C@H](CCCCCCCCCCC)CC(=O)N[C@H](CC(=O)O)C(=O)NCCC[C@H](CO)NC(=O)C[C@H](O)CCCCCCCCCCC	50% inhibition LPS	µg/mL	1
CCCCCCCCCCC[C@@H](O)CC(=O)N[C@H](CCCNC(=O)[C@@H](CC(=O)O)NC(=O)C(CCCCCC)OC(=O)CCCCCCCCC)COC(=O)CCCCCN (some centres unmarked)	50% inhibition LPS	µg/mL	0.0009

Please look at the following molecule next.
QUERY: What is its 50% inhibition LPS for human peripheral blood mononuclear cells? Entry: `CCCCCCCCCCCC(=O)O[C@H](CCCCCCCCCCC)CC(=O)N[C@H](CC(=O)O)C(=O)NCCC[C@H](COP(=O)(O)O)NC(=O)C[C@H](O)CCCCCCCCCCC`
RESULT: 0.19
